Target: T1, human PVRIG-mFc protein (Acro, PVG-H5253) (human, UniProt Q6DKI7 41-171, limits assumed)
T1 construct: bought protein
T1 sequence (looked up): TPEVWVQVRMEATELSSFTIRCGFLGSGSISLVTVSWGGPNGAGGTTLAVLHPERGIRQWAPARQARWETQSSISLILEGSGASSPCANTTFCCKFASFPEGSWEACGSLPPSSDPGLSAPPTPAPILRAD
Assay: FACS competition, PVRIG-mFc binding to CHO-K1-CD112 cells, competitor CD112 on cells
VALUE TYPE: % AUC to COM701-hIgG4 (%)
Quick note: give the figure in %, leave out the unit.

1. PVRIG-A117 (Fc fusion, heavy chain antibody VHH-hinge-CH2-CH3, human IgG1 constant part; not shown: human IgG1 hinge-CH2-CH3) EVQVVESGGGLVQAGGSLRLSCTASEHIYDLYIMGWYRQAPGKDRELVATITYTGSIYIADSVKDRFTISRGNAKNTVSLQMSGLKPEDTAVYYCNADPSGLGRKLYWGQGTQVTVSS = 130

Turning now to a further record.
GET /value?item= PVRIG-A35 (Fc fusion, heavy chain antibody VHH-hinge-CH2-CH3, human IgG1 constant part; not shown: human IgG1 hinge-CH2-CH3) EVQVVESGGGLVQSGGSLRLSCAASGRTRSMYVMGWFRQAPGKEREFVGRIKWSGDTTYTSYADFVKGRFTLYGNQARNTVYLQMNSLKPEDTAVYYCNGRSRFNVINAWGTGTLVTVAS &field=% AUC to COM701-hIgG4 returns 145
